This section presents pIC50 values reported for Vascular endothelial growth factor receptor 2 (Homo sapiens, UniProt P35968) in the literature.
pIC50: −log10 of the molar value.

>>> value_reported("COc1cc(OC)cc(N(CC2CC2)c2ccc3ncc(C(=O)N4CCC4)nc3c2)c1")
"< 5.00"

Could I get pIC50 for every one of these entries?
1. COc1ccn(-c2ccc(F)cc2)c(=O)c1C(=O)Nc1ccc(Oc2ccnc3cc(OCCCN4CCOCC4)c4c(c23)OCCO4)cc1Cl
2. CCOc1cc(-c2ccc(N3C[C@@H]4C[C@@](C)(NC(=O)c5nc(C)ccc5Cl)C[C@@H]4C3)nc2)c2c(C#N)cnn2c1
3. Nc1nc(NCc2ccccc2-c2ccccc2)cc(-c2cc(-c3ccc(O)cc3)ccc2O)n1

Completion:
1: 6.30 to 7.30; 2: < 7.00; 3: > 6.00

Could I get pIC50 for every one of these entries?
1. CC(C)(O)C#Cc1cc(-c2ccc(N3CCC(C)(NC(=O)c4ncccc4Cl)CC3)nc2)c2c(C#N)cnn2c1
2. COc1cc2nccc(Oc3ccc(NC(=O)c4cnc(C)c(/C=C/C(C)(C)C)c4O)cc3F)c2cc1OC
3. COc1cc(-c2cc3nccc(-c4cccc(N)c4)c3o2)cc(OC)c1OC

Completion:
7.34
≥ 7.00
4.30 to 5.52

###

This section presents IC50 values reported for Vascular endothelial growth factor receptor 2 (Homo sapiens) in the literature.

Below, each entry is followed by its recorded IC50 result.
>>> value_reported("O=C(Nc1ccc(Oc2cc(-c3ncco3)ncn2)cc1)Nc1ccc(Cl)c(C(F)(F)F)c1")
"≤ 10000 nM"
>>> value_reported("COc1cc2nccc(Oc3ccc4c(c3)CCCN4C(=S)NC3CC3)c2cc1C(N)=O")
"50 to 200 nM"
>>> value_reported("CCn1cc(C(=O)Nc2ccc(Oc3ccnc4cc(OC5CC5)c5c(c34)OCCO5)cc2)c(=O)n(-c2ccc(F)cc2)c1=O")
"> 5000 nM"
>>> value_reported("COc1cc2ncnc(Nc3ccc(NC(=O)NC4CCCC4)c(Cl)c3)c2c2c1OCCO2")
"50 to 500 nM"
>>> value_reported("Nc1cccc(-c2cnc3[nH]cc(C(=O)c4ccc5nsnc5c4)c3c2)c1")
"≤ 10000 nM"

Could I get IC50 for every one of these entries?
1. NS(=O)(=O)c1ccc(-c2cnc3cc(-c4ccc(C5CNCCN5)cc4)ccn23)c2ccccc12 (stereo not shown)
2. CN1CCN(Cc2ccc(NC(=O)N3CCOc4cc(Oc5ccnc(N)n5)ccc43)cc2C(F)(F)F)CC1
3. Cc1ccc(Nc2ccc3c(NC(=O)c4ccc(C5CCN(C)CC5)cc4)n[nH]c3n2)cc1
4. O=C(Nc1cc(OC2CCOC2)cc(C(F)(F)F)c1)Nc1ccc(Oc2ccnc(NC(=O)C3CC3)c2)c(F)c1 (stereo not shown)
5. Cc1c(S(=O)(=O)Nc2ccc(F)c(C(=O)c3c[nH]c4ncc(C#N)cc34)c2F)cnn1C

Completion:
31400 nM
96 nM
2.6 nM
14.2 nM
≤ 10000 nM

Could I get IC50 for every one of these entries?
1. COC(=O)Nc1cc(CNc2ccccc2C(=O)NCCC(C)(C)C)ccn1
2. CCCS(=O)(=O)Nc1ccc(F)c(C(=O)c2c[nH]c3ncc(-c4cccc(S(C)(=O)=O)c4)cc23)c1F
3. COc1cc2nccc(Oc3ccc(NC(=O)c4c(C)n(C)c(C)c(C(=O)N(C)C)c4=O)cc3F)c2nc1OC

Completion:
1. 11 nM
2. ≤ 10000 nM
3. > 300 nM

Could I get IC50 for every one of these entries?
1. COCCOc1cc2nccc(Oc3ccc(NC(=O)c4cnc(C)c(/C=C/C(C)(C)C)c4O)cc3F)c2nc1OC
2. COc1ccc(CN2CCC(Nc3ccc(-c4cc(-c5cnn(C)c5)cn5ncc(C#N)c45)cn3)CC2)cn1
3. CC(C)(O)COc1cc(-c2ccc(N3C[C@@H]4CN(S(=O)(=O)c5c(F)cccc5Cl)C[C@@H]4C3)nc2)c2c(C#N)cnn2c1

Completion:
1: ≤ 100 nM; 2: 109 nM; 3: 10 to 50 nM

###

This section presents pIC50 values reported for Vascular endothelial growth factor receptor 2 (Homo sapiens, UniProt P35968) in the literature.
pIC50: −log10 of the molar value.

Could I get pIC50 for every one of these entries?
1. COc1cc(OC)cc(N(CC(OC(C)=O)C(F)(F)F)c2ccc3ncc(-c4cccnc4)nc3c2)c1 (single isomer, unassigned)
2. Fc1nc(NCc2ccnc(Cl)c2)ccc1Cc1c[nH]c2ncncc12
3. c1cnc2[nH]cc(Sc3ccncc3)c2c1
4. CCN1CCN(c2ccc(Nc3ncc(-c4cccc(OC)c4)o3)cc2)CC1
5. COc1ccc(CN2C3CC2CN(c2ccc(-c4cc(N5CC6(COC6)C5)cn5ncc(C#N)c45)cn2)C3)cn1
6. CCCS(=O)(=O)Nc1ccc(F)c(Nc2ncnc3cc(OCCN4CCOCC4)c(-c4cccnc4F)cc23)c1F

Completion:
< 6.00
≥ 5.00
≥ 5.00
> 6.00
8.81
< 5.52

Could I get pIC50 for every one of these entries?
1. COc1cc2nccc(Oc3ccc(NC(=S)Nc4ccc(F)cc4)c(Cl)c3)c2cc1C(N)=O
2. COc1cc2nccc(Oc3ccc(NC(=S)NC4CC4)c(Cl)c3)c2cc1C(=O)NCC(F)(F)F
3. COc1ccc(CNc2ncc(Cc3c[nH]c4ncncc34)cc2C)cn1
4. Cn1cc(-c2cnc3[nH]cc(C(=O)c4c(F)ccc(NS(=O)(=O)C5CC5)c4F)c3c2)cn1
5. O=C(Nc1ccc(Oc2ccnc3ccc4c(c23)OCCO4)cc1F)c1cccn(-c2ccc(F)cc2)c1=O

Completion:
1: 6.70 to 7.30; 2: 6.70 to 7.30; 3: ≥ 5.00; 4: ≥ 5.00; 5: 5.30 to 6.30

Could I get pIC50 for every one of these entries?
1. COc1cnc2[nH]cc(Cc3cc(F)c(OCc4nc5ccccc5[nH]4)cc3F)c2c1
2. COc1cc(OC)cc(N(CC2CC2)c2ccc3ncc(-c4ccc(N)nc4)nc3c2)c1
3. C=CC(=O)Nc1cc2c(Nc3ccc(Br)cc3F)ncnc2cc1OCCNC(=O)C(F)F
4. Nc1cccc(-c2cnc3[nH]cc(C(=O)c4cccc(Cl)c4Cl)c3c2)c1
5. CC(F)(F)c1cccc(NC(=O)Nc2ccc(Oc3ccnc(NC(=O)C4CC4)c3)c(F)c2)c1
6. COc1cc(-c2cc3nccc(-c4cccc(C(=O)NC5CCCCC5N)c4)c3o2)cc(OC)c1OC (centres unmarked)

Completion:
≥ 5.00
5.67
6.28
≥ 5.00
8.01
4.30 to 5.52

###

This section presents IC50 values reported for Vascular endothelial growth factor receptor 2 (Homo sapiens, UniProt P35968) in the literature.

Below, each entry is followed by its recorded IC50 result.
>>> value_reported("Cn1ncnc1-c1cc(Oc2ccc(NC(=O)Nc3ccc(Cl)c(C(F)(F)F)c3)cc2)ncn1")
"≤ 10000 nM"
>>> value_reported("CCOC(=O)N=S(C)(=O)c1ccc2cc1NCCCCNc1nc(ncc1I)N2 (racemic)")
"9 nM"
>>> value_reported("CCOc1ccn(-c2ccc(F)cc2)c(=O)c1C(=O)Nc1ccc(Oc2ncnc3cc(OC)c4c(c23)OCCO4)c(F)c1")
"50 to 500 nM"

Could I get IC50 for every one of these entries?
1. CC(C)c1cccc(-c2cc3nccc(-c4cnn(C)c4)c3o2)c1
2. COc1cc(OC)cc(N(CC2CC2)c2ccc3ncc(-c4cnc5[nH]ccc5c4)nc3c2)c1
3. COc1cccc(C(=O)c2c[nH]c3ncc(-c4cccs4)cc23)c1

Completion:
3000 to 50000 nM
> 10000 nM
≤ 10000 nM

###

This section presents IC50 values reported for Vascular endothelial growth factor receptor 2 (Homo sapiens, UniProt P35968) in the literature.

Below, each entry is followed by its recorded IC50 result.
>>> value_reported("Cn1cnc(-c2ccc3c(Oc4ccc(NC(=S)NC5CC5)c(Cl)c4)ccnc3c2)c1")
"< 50 nM"
>>> value_reported("O=C(c1ccccc1F)c1c[nH]c2nccc(-c3cc(F)cc(F)c3)c12")
"≤ 10000 nM"
>>> value_reported("Nc1nc(-c2cc(-c3ccc(O)cc3)ccc2O)cc(N2CCCC2CO)n1 (stereo in doubt)")
"1000 to 20000 nM"
>>> value_reported("O=C(Nc1cc2[nH]ncc2cc1Cl)c1ccccc1NCc1ccncc1")
"10 nM"
>>> value_reported("O=C(c1c(F)ccc(NS(=O)(=O)N2CCCC2)c1F)c1c[nH]c2ncc(Cl)cc12")
"≤ 10000 nM"

Could I get IC50 for every one of these entries?
1. COc1cccc(NC(=O)Nc2ccc(Oc3ncnc4cc(OC)c5c(c34)OCCO5)c(Cl)c2)c1
2. C=CC(=O)Nc1cc2c(Nc3cc(Cl)c(Br)cc3F)ncnc2cc1OCCNC(=O)CC
3. Cn1cc(-c2nccc(Oc3ccc(NC(=O)Nc4ccc(Cl)c(C(F)(F)F)c4)cc3)c2F)cn1
4. O=C(Nc1ccc(C#Cc2ccc3nccn3n2)cc1)Nc1cc(C(F)(F)F)ccc1F
5. COc1cc2nccc(Oc3ccc(NC(=O)c4cnc(C)c(C5=CCOCC5)c4O)cc3)c2cc1OC
6. COCCOc1cc2nccc(Oc3ccc(NC(=O)Nc4ccc(Cl)c(C(F)(F)F)c4)cc3)c2c2c1OCCO2

Completion:
< 50 nM
172 nM
28.6 nM
448 nM
≤ 100 nM
50 to 500 nM

Could I get IC50 for every one of these entries?
1. Brc1cnc(Nc2cccc(Nc3ncc(Br)c(NCCc4c[nH]cn4)n3)c2)nc1NCCc1c[nH]cn1
2. COc1cc2nccc(Oc3ccc(Nc4c(NCCC#N)c(=O)c4=O)c(Cl)c3)c2cc1C(N)=O
3. O=C(c1cccc(O)c1)c1c[nH]c2ncc(Nc3ccccc3)cc12
4. CCCS(=O)(=O)Nc1ccc(F)c(C(=O)c2c[nH]c3ncc(-c4ccc(S(=O)(=O)N(C)C)cc4)cc23)c1F

Completion:
23 nM
200 to 1000 nM
≤ 10000 nM
≤ 10000 nM

Prompt: Query IC50 for `COc1cnc2[nH]cc(Cc3cc(F)c(OCc4nc5ccccc5[nH]4)cc3Cl)c2c1`
Completion: ≤ 10000 nM
